B1: TPR 5TU (parent)
chain: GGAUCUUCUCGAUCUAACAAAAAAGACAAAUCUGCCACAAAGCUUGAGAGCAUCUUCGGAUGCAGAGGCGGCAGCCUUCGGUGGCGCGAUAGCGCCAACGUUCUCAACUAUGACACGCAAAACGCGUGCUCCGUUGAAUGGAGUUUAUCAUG

Variants of: B1
assay_method_text: polymerase ribozyme fitness, log enrichment relative to wild type (log ratio); higher = more active; in vitro selection for triplet polymerase activity
Variants at the floor of the assay were thinned out.
polymerase ribozyme fitness (log ratio) listing for selected variants.
measured_endpoint: polymerase ribozyme fitness (log ratio)

[
  {
    "mutation_annotation": "A26G A28G C87A C105G C108U C125A",
    "result": "≤ -4.2"
  },
  {
    "mutation_annotation": "U53A G70C C114A",
    "result": "≤ -4.2"
  },
  {
    "mutation_annotation": "A16G G48A A122U C149U",
    "result": -3.58
  },
  {
    "mutation_annotation": "A12G A19U U45A U53A G88U",
    "result": "≤ -4.2"
  },
  {
    "mutation_annotation": "C57G C123U U145A",
    "result": -0.237
  },
  {
    "mutation_annotation": "A24U G68C G83U A107C",
    "result": "≤ -4.2"
  },
  {
    "mutation_annotation": "G59U G67C G136A",
    "result": "≤ -4.2"
  },
  {
    "mutation_annotation": "C116U U144A",
    "result": -0.259
  },
  {
    "mutation_annotation": "A22G C132G",
    "result": -3.69
  },
  {
    "mutation_annotation": "C38U G62A C96U C129U",
    "result": -0.672
  },
  {
    "mutation_annotation": "A17G A39G U56A C85G A115G",
    "result": -3.92
  },
  {
    "mutation_annotation": "C72U C87U C105A",
    "result": -3.79
  },
  {
    "mutation_annotation": "C10U C14G A28U G58C U61C G70C C76G C96U A138G G140U C149G",
    "result": "≤ -4.2"
  },
  {
    "mutation_annotation": "G58C G70C G141A",
    "result": "≤ -4.2"
  },
  {
    "mutation_annotation": "C5A U7C A22U C103G",
    "result": -2.38
  },
  {
    "mutation_annotation": "A17G A40U U55A U56A C103A A119G U134A",
    "result": "≤ -4.2"
  },
  {
    "mutation_annotation": "A26C U44A U55G G86A G88C",
    "result": "≤ -4.2"
  },
  {
    "mutation_annotation": "C93A G124A",
    "result": -2.59
  },
  {
    "mutation_annotation": "U9A A26G A66C A122U A137U G143C U145A",
    "result": "≤ -4.2"
  },
  {
    "mutation_annotation": "U9A A16G U45A C57A C75G G83U G92A",
    "result": "≤ -4.2"
  },
  {
    "mutation_annotation": "A52U U53G U56A G65C C75U C85U U104G U127C U139A",
    "result": "≤ -4.2"
  },
  {
    "mutation_annotation": "A3U A30U G86U C87U",
    "result": "≤ -4.2"
  },
  {
    "mutation_annotation": "C93A A106G",
    "result": -1.9
  },
  {
    "mutation_annotation": "G74C A89U U146C",
    "result": "≤ -4.2"
  },
  {
    "mutation_annotation": "C18G U44G U55G G58C C93A",
    "result": "≤ -4.2"
  },
  {
    "mutation_annotation": "C96A G126A U139G U151C",
    "result": "≤ -4.2"
  },
  {
    "mutation_annotation": "C5A A20G C85U C93U A97U",
    "result": -3.46
  },
  {
    "mutation_annotation": "C38A U53A A60U C93G C131A G141C",
    "result": -3.94
  },
  {
    "mutation_annotation": "C32U C51A A52U C96G G136U",
    "result": "≤ -4.2"
  },
  {
    "mutation_annotation": "C8G G71A G74A C79U C87A C116A",
    "result": "≤ -4.2"
  },
  {
    "mutation_annotation": "A24U A30U G59A U101C U102G A121U G126C A142C",
    "result": "≤ -4.2"
  },
  {
    "mutation_annotation": "G50C U134C",
    "result": -2.51
  },
  {
    "mutation_annotation": "C69A U104G",
    "result": -3.09
  },
  {
    "mutation_annotation": "C27G A37C A47C C87G A115C",
    "result": "≤ -4.2"
  },
  {
    "mutation_annotation": "A41G C75G G92C U146A",
    "result": "≤ -4.2"
  },
  {
    "mutation_annotation": "C85A C87U A119U",
    "result": "≤ -4.2"
  },
  {
    "mutation_annotation": "A39C G68A G80A C118U G128U",
    "result": "≤ -4.2"
  },
  {
    "mutation_annotation": "G42A A73G C87U",
    "result": "≤ -4.2"
  },
  {
    "mutation_annotation": "A21U U104C",
    "result": 0.212
  },
  {
    "mutation_annotation": "A20G G81A C96U C114G U127G A142C",
    "result": "≤ -4.2"
  },
  {
    "mutation_annotation": "G58A C96A A97G A106C A119U",
    "result": -1.42
  },
  {
    "mutation_annotation": "A19U C79A",
    "result": "≤ -4.2"
  },
  {
    "mutation_annotation": "A24C U56A G68A G141A",
    "result": "≤ -4.2"
  },
  {
    "mutation_annotation": "C5A G62C G67C G94A A106U",
    "result": "≤ -4.2"
  },
  {
    "mutation_annotation": "A20G A52G G58U C87U",
    "result": -0.805
  },
  {
    "mutation_annotation": "G59C C93A C95A",
    "result": -4.05
  }
]
